Ref: patent US8415308B2

test system: Replicon cells; assay: HCV EC50 determination in replicon cells (luciferase); type: cell-based; conditions: Hepatitis C virus, 72 h; replicon cells, 3 days, luciferase activity; read-out: EC50
pEC50: −log10 of the molar value.
READOUT LABEL: pEC50

CC(C)OC(=O)[C@H](C)NP(=O)(N[C@@H](C)C(=O)OC(C)C)OC[C@H]1O[C@@](C#N)(c2ccc3c(N)ncnn23)[C@](C)(O)[C@@H]1OC(=O)C(C)C [Compound 64]: 5.27
CC(C)OC(=O)[C@H](C)NP(=O)(N[C@@H](C)C(=O)OC(C)C)OC[C@H]1O[C@@](C#N)(c2ccc3c(N)ncnn23)[C@](C)(O)[C@@H]1O [Compound 61]: 4.29
CC(=O)O[C@@H]1[C@@H](COP(=O)(N[C@@H](C)C(=O)OC(C)C)N[C@@H](C)C(=O)OC(C)C)O[C@@](C#N)(c2ccc3c(N)ncnn23)[C@]1(C)O [Compound 65]: 5.08
